Target: human HDAC3/SMRT heterodimer (Homo sapiens (Human), UniProt O15379)
Sequence (O15379 whole entry): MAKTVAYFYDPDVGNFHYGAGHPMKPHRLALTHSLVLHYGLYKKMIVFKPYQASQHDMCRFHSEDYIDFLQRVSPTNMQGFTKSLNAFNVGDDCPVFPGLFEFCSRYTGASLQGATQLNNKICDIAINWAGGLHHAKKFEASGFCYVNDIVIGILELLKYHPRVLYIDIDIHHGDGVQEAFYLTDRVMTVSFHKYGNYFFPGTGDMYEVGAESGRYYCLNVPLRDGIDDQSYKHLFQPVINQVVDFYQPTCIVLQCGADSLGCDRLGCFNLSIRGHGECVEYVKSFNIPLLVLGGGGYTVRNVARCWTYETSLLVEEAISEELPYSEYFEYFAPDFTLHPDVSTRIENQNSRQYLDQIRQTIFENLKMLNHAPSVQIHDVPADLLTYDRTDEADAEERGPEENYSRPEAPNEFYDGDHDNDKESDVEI
Sequence (Q9Y618 1-899 partner): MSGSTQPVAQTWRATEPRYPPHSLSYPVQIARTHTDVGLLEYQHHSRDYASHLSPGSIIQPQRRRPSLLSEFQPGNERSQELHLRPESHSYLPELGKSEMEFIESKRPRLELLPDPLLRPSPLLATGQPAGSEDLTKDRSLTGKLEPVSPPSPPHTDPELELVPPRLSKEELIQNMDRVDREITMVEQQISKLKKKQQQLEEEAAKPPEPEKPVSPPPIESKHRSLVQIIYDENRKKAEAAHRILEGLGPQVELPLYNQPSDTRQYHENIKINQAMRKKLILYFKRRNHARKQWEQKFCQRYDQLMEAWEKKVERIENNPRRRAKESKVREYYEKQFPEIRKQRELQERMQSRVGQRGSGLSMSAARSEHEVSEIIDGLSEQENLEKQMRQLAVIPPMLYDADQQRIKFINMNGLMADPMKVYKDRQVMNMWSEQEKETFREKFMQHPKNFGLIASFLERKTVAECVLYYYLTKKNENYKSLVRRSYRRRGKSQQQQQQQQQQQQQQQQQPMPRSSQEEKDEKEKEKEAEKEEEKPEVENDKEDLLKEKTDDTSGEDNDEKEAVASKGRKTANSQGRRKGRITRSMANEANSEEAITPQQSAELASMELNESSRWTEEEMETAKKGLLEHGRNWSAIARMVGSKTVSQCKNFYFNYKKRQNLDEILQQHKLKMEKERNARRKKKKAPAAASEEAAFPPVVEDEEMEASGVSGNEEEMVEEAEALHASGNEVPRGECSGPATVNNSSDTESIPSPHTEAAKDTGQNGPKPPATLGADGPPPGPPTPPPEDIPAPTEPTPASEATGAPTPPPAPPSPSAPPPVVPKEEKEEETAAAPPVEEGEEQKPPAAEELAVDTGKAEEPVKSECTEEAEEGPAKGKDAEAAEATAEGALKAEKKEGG
pIC50: −log10 of the molar value.
Param threshold (9) applies to pIC50; output 1.0 when value >= threshold, 0.0 when value < threshold.

*Q* Item COc1cc2nc(C)ccc2cc1-c1cnc([C@H](CCCCCC(=O)c2cc(C)on2)NC(=O)C2CN(C)C2)[nH]1 [Example 57] with pIC50 of 9 or above?
*A* 1.0

*Q* Item N[C@@H](CCCCCC(=O)c1ncco1)c1ncc(-c2ccc(C(F)(F)F)cc2F)[nH]1 [Example 139] with pIC50 of 9 or above?
*A* 0.0

*Q* Item CN1CCC2(CC1)C[C@@H]2C(=O)N[C@@H](CCCCCC(=O)c1ccon1)c1[nH]c(-c2ccccc2F)nc1Cl [Example 112] with pIC50 of 9 or above?
*A* 1.0

*Q* Item COc1cc2nc(C)ccc2cc1-c1cnc([C@H](CCCCCC(=O)c2ncco2)NC(=O)C2COCCO2)[nH]1 (stereo partly shown) [Example 173] with pIC50 of 9 or above?
*A* 1.0

*Q* Item COc1cc2nc(C)ccc2cc1-c1cnc([C@H](CCCCCC(=O)c2ncco2)NCc2ccccc2)[nH]1 [Example 82] with pIC50 of 9 or above?
*A* 0.0

*Q* Item COc1nc2ccccc2cc1-c1cnc([C@H](CCCCCC(=O)c2ncco2)NC(=O)CCCN(C)C)[nH]1 [Example 55] with pIC50 of 9 or above?
*A* 1.0

###

Molecular target: human HDAC2 (Homo sapiens (Human))
Test: HDAC2 inhibition assay (modified FLUOR DE LYS, 384-well)
Assay type: biochemical
Conditions: […] enzyme, 40 μM substrate BML-KI104, 3 h pre-incubation; read-out: HDAC2 IC50
pIC50: −log10 of the molar value.
Param threshold (8) applies to pIC50; output Criterion met when value >= threshold, Criterion not met when value < threshold.

*Q* Item COc1nc2ccccc2cc1-c1cnc([C@H](CCCCCC(=O)c2ncco2)NC(=O)CCCN(C)C)[nH]1 [Example 55] with pIC50 of 8 or above?
*A* Criterion met

*Q* Item N[C@@H](CCCCCC(=O)c1ncco1)c1nc(-c2ccc3nn(C4CC4)cc3c2)c[nH]1 [Example 14] with pIC50 of 8 or above?
*A* Criterion met

*Q* Item COc1nc2ccccc2cc1-c1cnc([C@H](CCCCCC(=O)c2ncco2)NC(=O)c2cc3n(n2)CCCC3)[nH]1 [Example 154] with pIC50 of 8 or above?
*A* Criterion not met

###

Record form. Attribute: pIC50. Fill in for each entry.
# pIC50 is unitless: minus log10 of the molar concentration; print number only

*Q* What value of pIC50 on human HDAC1 (Homo sapiens (Human), UniProt Q13547) does COc1nc2ccccc2cc1-c1c[nH]c([C@H](CCCCCC(=O)c2ccon2)NC(=O)C2CCN(C)CC2)n1 [Example 40] have?
*A* 8.82

*Q* What value of pIC50 on human HDAC1 (Homo sapiens (Human), UniProt Q13547) does COc1nc2ccccc2cc1-c1cnc([C@H](CCCCCC(=O)c2ncco2)NC(=O)C2(c3cnccn3)CC2)[nH]1 [Example 155] have?
*A* 9.09

*Q* What value of pIC50 on human HDAC1 (Homo sapiens (Human), UniProt Q13547) does COc1nc2ccccc2cc1-c1cnc([C@H](CCCCCC(=O)c2ncco2)NC(=O)CN2CCCC2)[nH]1 [Example 52] have?
*A* 9.25

*Q* What value of pIC50 on human HDAC1 (Homo sapiens (Human), UniProt Q13547) does COc1ccc(-c2cnc([C@@H](N)CCCCCC(=O)c3ncco3)[nH]2)c(F)c1 [Example 140] have?
*A* 9.00

*Q* What value of pIC50 on human HDAC1 (Homo sapiens (Human), UniProt Q13547) does CN(C)CC(=O)N[C@@H](CCCCCC(=O)c1ncco1)c1ncc(-c2ccc3c(ccc(=O)n3C)c2)[nH]1 [Example 46] have?
*A* 8.77

*Q* What value of pIC50 on human HDAC1 (Homo sapiens (Human), UniProt Q13547) does COc1nc(C2CC2)ccc1-c1c[nH]c([C@H](CCCCCC(=O)c2ncco2)NC(=O)[C@H]2CC23CCN(C)CC3)n1 [Example 115] have?
*A* 9.18

###

Target: human HDAC8 (Homo sapiens (Human))
Sequence (Q9BY41 whole entry): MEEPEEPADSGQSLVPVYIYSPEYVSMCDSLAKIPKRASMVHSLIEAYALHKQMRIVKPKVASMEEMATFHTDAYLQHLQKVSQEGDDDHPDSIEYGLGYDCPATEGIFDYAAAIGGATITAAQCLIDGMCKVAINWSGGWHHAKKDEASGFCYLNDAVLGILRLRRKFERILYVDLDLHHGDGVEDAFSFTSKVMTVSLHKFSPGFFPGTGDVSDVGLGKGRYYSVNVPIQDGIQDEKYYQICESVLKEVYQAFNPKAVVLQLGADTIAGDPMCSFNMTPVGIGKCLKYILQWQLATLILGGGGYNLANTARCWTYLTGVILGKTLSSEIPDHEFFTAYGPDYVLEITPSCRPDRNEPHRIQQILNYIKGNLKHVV
Assay: HDAC8 inhibition assay (modified FLUOR DE LYS, 384-well)
Type: biochemical
Conditions: […] nM enzyme, 200 μM substrate BML-KI178, 3 h pre-incubation; read-out: HDAC8 IC50
Record form. Attribute: IC50. Fill in for each entry.
Write it as a number; the unit nM goes unstated.

*Q* Given COc1cc2nc(C)ccc2cc1-c1cnc([C@H](CCCCCC(=O)c2ncco2)NC(=O)C2CCC3(CC2)CN(C)C3)[nH]1 [Example 117] , state its recorded IC50.
*A* 21

*Q* Given N[C@@H](CCCCCC(=O)c1ncco1)c1[nH]c(-c2ccc(F)cc2)nc1Cl [Example 25] , state its recorded IC50.
*A* 6300

*Q* Given COc1cc2nc(C)ccc2cc1-c1cnc([C@H](CCCCCC(=O)c2ccon2)NC(=O)[C@H]2CC23CCN(C)CC3)[nH]1 [Example 110] , state its recorded IC50.
*A* 2.7

###

test_readout: IC50 (nM)
Write it as a number; the unit nM goes unstated.

*Q* What value of IC50 on human HDAC3/SMRT heterodimer (Homo sapiens (Human), UniProt O15379) does COc1nc2ccccc2cc1-c1cnc([C@H](CCCCCC(=O)c2ncco2)NC(=O)C2(c3ccncc3)CC2)[nH]1 [Example 151] have?
*A* 1.5

*Q* What value of IC50 on human HDAC3/SMRT heterodimer (Homo sapiens (Human), UniProt O15379) does COc1cc2nc(C)ccc2cc1-c1cnc([C@H](CCCCCC(=O)c2ncco2)NC(=O)c2cc3ccccn3n2)[nH]1 [Example 167] have?
*A* 0.59

*Q* What value of IC50 on human HDAC3/SMRT heterodimer (Homo sapiens (Human), UniProt O15379) does COc1ccc(-c2cnc([C@@H](N)CCCCCC(=O)c3ncco3)[nH]2)c(F)c1 [Example 140] have?
*A* 1.3

*Q* What value of IC50 on human HDAC3/SMRT heterodimer (Homo sapiens (Human), UniProt O15379) does COc1cc2nc(C)ccc2cc1-c1cnc([C@H](CCCCCC(=O)c2ncco2)NC(=O)Cn2cccn2)[nH]1 [Example 160] have?
*A* 0.54

*Q* What value of IC50 on human HDAC3/SMRT heterodimer (Homo sapiens (Human), UniProt O15379) does CCN1CCC2(CC1)C[C@@H]2C(=O)N[C@@H](CCCCCC(=O)c1ncco1)c1ccn(-c2ccc3nn(C)cc3c2)n1 [Example 180] have?
*A* 1.5

*Q* What value of IC50 on human HDAC3/SMRT heterodimer (Homo sapiens (Human), UniProt O15379) does COc1nc2ccccc2cc1-c1cnc([C@H](CCCCCC(=O)c2ncco2)NC(=O)Cn2cccc2)[nH]1 [Example 150] have?
*A* 1.5

*Q* What value of IC50 on human HDAC3/SMRT heterodimer (Homo sapiens (Human), UniProt O15379) does Cc1ccc2cc(-c3cnc(C(CCCCCC(=O)c4ncco4)NC(=O)[C@H]4CC45CCN(C)CC5)o3)ccc2n1 (stereo partly shown) [Example 111] have?
*A* 1.4

###

Record form. Attribute: IC50. Fill in for each entry.
Biological target: human HDAC2 (Homo sapiens (Human), UniProt Q92769)
Sequence (Q92769 whole entry): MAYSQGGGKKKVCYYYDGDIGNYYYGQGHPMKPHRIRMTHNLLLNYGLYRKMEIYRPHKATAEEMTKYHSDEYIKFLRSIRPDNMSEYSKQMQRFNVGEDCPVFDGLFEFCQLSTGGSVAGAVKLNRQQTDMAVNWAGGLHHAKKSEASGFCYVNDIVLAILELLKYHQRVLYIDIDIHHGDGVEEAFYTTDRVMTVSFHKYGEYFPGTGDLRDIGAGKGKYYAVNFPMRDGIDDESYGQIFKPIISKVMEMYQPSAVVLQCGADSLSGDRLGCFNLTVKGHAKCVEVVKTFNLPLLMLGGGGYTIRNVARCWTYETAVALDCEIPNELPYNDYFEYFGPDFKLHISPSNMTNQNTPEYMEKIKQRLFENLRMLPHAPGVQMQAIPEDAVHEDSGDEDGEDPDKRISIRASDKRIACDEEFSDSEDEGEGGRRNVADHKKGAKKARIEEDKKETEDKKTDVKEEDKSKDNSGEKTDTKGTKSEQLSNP
Experiment: HDAC2 inhibition assay (modified FLUOR DE LYS, 384-well)
Type: biochemical
Details: […] enzyme, 40 μM substrate BML-KI104, 3 h pre-incubation; read-out: HDAC2 IC50
Write it as a number; the unit nM goes unstated.

*Q* Given `CN1CCC2(CC1)C[C@@H]2C(=O)N[C@@H](CCCCCC(=O)c1ncco1)c1oc(-c2ccc(F)cc2)nc1C#N` , state its recorded IC50.
*A* 12

*Q* Given `COc1cc2nc(C)ccc2cc1-c1cnc([C@H](CCCCCC(=O)c2ncco2)NCc2ccccc2)[nH]1` , state its recorded IC50.
*A* 7.8

*Q* Given `COc1cc2nc(C)ccc2cc1-c1cnc([C@H](CCCCCC(=O)c2ncco2)NC(=O)c2cc3n(n2)CCS(=O)(=O)C3)[nH]1` , state its recorded IC50.
*A* 7.2

*Q* Given `COc1nc2ccccc2cc1-c1cnc([C@H](CCCCCC(=O)c2ncco2)NC(=O)C2(c3ccncc3)CC2)[nH]1` , state its recorded IC50.
*A* 7.8
